# Measured target: AChE (UniProt P23795)
# Type: biochemical, human or bovine erythrocytes
# Experimental parameters: Table 3; 120 min incubation; read-out: IC50 AChE 120 min
pIC50: −log10 of the molar value. Structures can show the parent of a compound that is named as a salt.
Returns one of Satisfied or Not satisfied; Satisfied when pIC50 is >= 4.

> print(dat)
                                   compound        measured.target   answer.label
1  CCN(C)C(=O)Oc1ccc2c(c1)NCC2CCC(=O)OC (centres unmarked) [AN-680, hydrochloride]  AChE (UniProt P23795)      Satisfied
2  CCCCN(C)C(=O)Oc1ccc2c(c1)NCC2CCC(=O)OC (centres unmarked) [AN-677, hydrochloride]  AChE (UniProt P23795)      Satisfied
3  CCOC(=O)CCC1CNc2cccc(OC(=O)N(C)CC)c21.O=C(O)CC(O)(CC(=O)O)C(=O)O (centres unmarked)  AChE (UniProt P23795)      Satisfied
4  COC(=O)CCC1CN(C)c2cccc(OC(=O)N(C)c3ccc(OC)cc3)c21 (centres unmarked) [AN-820, hydrochloride]  AChE (UniProt P23795)  Not satisfied
5  CCN(C)C(=O)Oc1cccc2c1C(CCC(=O)O)CN2 (centres unmarked) [AN-850, hydrochloride]  AChE (UniProt P23795)      Satisfied
